# Test system: Mycobacterium tuberculosis
# test.name: Antibacterial activity against non-replicating form of Mycobacterium tuberculosis MC2 6220 assessed as growth inhibition after 3 days by high-throughput screening assay
# Assay type: functional
# test.context: MC2 6220, 72 h
Please respond with reported MIC90 for every item in the list.

Q: Using the record for CCCc1cc(=O)oc2cc(NCc3ccc(F)cc3)c3c(c12)OC(C)(C)C=C3 , report its MIC90.
Result: > 20 mg/L

Q: Please answer likewise for CCCc1cc(=O)oc2cc(N3CCC(O)CC3)c3c(c12)OC(C)(C)C=C3
Result: > 18 mg/L

Q: Thanks! And CCCc1cc(=O)oc2cc(C#CCO)c3c(c12)OC(C)(C)C=C3 ?
Result: > 16 mg/L

Q: Can you check CCCc1cc(=O)oc2cc(N3CCSCC3)c3c(c12)OC(C)(C)C=C3 next?
Result: > 19 mg/L

Q: Let us now turn to CCCc1cc(=O)oc2cc(OC3CCN(C(=O)NCc4ccccc4)CC3)c3c(c12)OC(C)(C)C=C3
Result: > 25 mg/L

Q: Then this compound: CCCc1cc(=O)oc2cc(N3CCN(C(=O)Nc4ccc(OC)cc4)CC3)c3c(c12)OC(C)(C)C=C3
Result: > 25 mg/L

Q: Next: CCCc1cc(=O)oc2cc(OC3CCN(C(=O)Nc4ccc(F)cc4)CC3)c3c(c12)OC(C)(C)C=C3
Result: > 24 mg/L

Q: Another: CCCc1cc(=O)oc2cc(C#Cc3ccc(OC)cc3)c3c(c12)OC(C)(C)C=C3
Result: > 20 mg/L

Q: Next compound: CCCc1cc(=O)oc2c1c(-c1ccc(F)cc1)cc1oc([N+](=O)[O-])cc12
Result: 18 mg/L

Q: Try this compound too: CCCc1cc(=O)oc2c1c(OCCN1CCOCC1)cc1[nH]c([N+](=O)[O-])cc12
Result: > 50 mg/L

Q: Please answer likewise for CCCc1cc(=O)oc2c3c(c4c(c12)OC(C)(C)C=C4)OC(C)(OC(C)=O)C3=O (stereo not drawn)
Result: > 20 mg/L

Q: Likewise for CCCc1cc(=O)oc2cc(NCc3cccc(F)c3)c3c(c12)OC(C)(C)C=C3 ?
Result: > 20 mg/L

Q: Entry CCCc1cc(=O)oc2cc(N3CCN(C(=O)Nc4ccc(OC(F)(F)F)cc4)CC3)c3c(c12)OC(C)(C)C=C3 please
Result: > 28 mg/L

Q: Consider next the compound CCCc1cc(=O)oc2cc(N3CCN(C(=O)Nc4ccc(C(C)C)cc4)CC3)c3c(c12)OC(C)(C)C=C3 in the same way.
Result: > 26 mg/L

Q: Query CCCc1cc(=O)oc2cc(OCCN3CCOCC3)c3c(c12)OC(C)(C)C=C3 next
Result: > 20 mg/L

Q: Now try CCCc1cc(=O)oc2c1c(OCCN1CCOCC1)cc1oc([N+](=O)[O-])c(C(C)C)c12 .
Result: > 22 mg/L

Q: Note, next up: CCCc1cc(=O)oc2cc(NC(=O)Nc3cccc4ccccc34)c3c(c12)OC(C)(C)C=C3
Result: > 23 mg/L

Q: How about this compound: O=[N+]([O-])C1Cc2ccccc2O1 (stereo not drawn)
Result: 0.4 mg/L

Q: Request: CCCCCCCNC(=O)N1CCN(c2cc3oc(=O)cc(CCC)c3c3c2C=CC(C)(C)O3)CC1
Result: > 25 mg/L

Q: Then this compound: CC1(C)C=Cc2c(c3c4c(c(=O)oc3c3cc([N+](=O)[O-])oc23)CCCC4)O1
Result: 2 mg/L

Q: Next: CCCc1cc(=O)oc2c(C(=O)CC)c(N(C)C)c3c(c12)OC(C)(C)C=C3
Result: > 18 mg/L

Q: Try this compound too: CCCc1cc(=O)oc2cc(OCc3ccccc3)c3c(c12)OC(C)(C)C=C3
Result: > 19 mg/L

Q: Item: CCCc1cc(=O)oc2c(C(=O)CC)c(N3CCN(c4ccncc4)CC3)c3c(c12)OC(C)(C)C=C3
Result: > 24 mg/L

====

# test.name: Cytotoxicity against human HepG2 cells assessed as decrease in ATP signal after 2 days by CellTiter-Glo assay
# Type: cell-based
# test.context: read-out: LD50
metric.name: CC50 at 48 h

Q: CC50 at 48 h lookup needed for CCCc1cc(=O)oc2c(C(=O)O)c(O)c3c(c12)OC(C)(C)C=C3 , thanks.
Result: > 17 µg/mL

Q: Another molecule to check: CCCc1cc(=O)oc2cc(OCC=C(C)C)c3c(c12)OC(C)(C)C=C3
Result: > 18 µg/mL

Q: Then what about the molecule CCCc1cc(=O)oc2cc(N3CCN(C(=O)Nc4ccc(F)cc4)CC3)c3c(c12)OC(C)(C)C=C3 ?
Result: > 25 µg/mL

Q: Further, for CCCc1cc(=O)oc2c3c(cc(OCCN4CCOCC4)c12)OC(C)([N+](=O)[O-])C3O (racemic) ?
Result: > 100 µg/mL

Q: Now give it for CC1(C)CCc2c3c(c4oc(=O)c5c(c4c2O1)CCCC5)[C@H](O)[C@@H]([N+](=O)[O-])O3 too.
Result: 25 µg/mL

====

# test.name: Cytotoxicity against human HepG2 cells assessed as decrease in ATP signal after 2 days by CellTiter-Glo assay
# Assay type: cell-based
# test.context: read-out: LD50
So I've got a bunch of molecules here, and I need their CC50 at 48 h values.

Q: For the molecule shown here, CCCc1cc(=O)oc2cc(C#Cc3ccccn3)c3c(c12)OC(C)(C)C=C3 , give the reported CC50 at 48 h.
Result: > 19 µg/mL

Q: Entry to check: CCCc1cc(=O)oc2cc(N3CCN(C(=O)Nc4ccc(C(F)(F)F)cc4)CC3)c3c(c12)OC(C)(C)C=C3
Result: > 27 µg/mL

Q: What about this molecule? CCCc1cc(=O)oc2cc(N3CCN(C(=O)NCc4ccccc4)CC3)c3c(c12)OC(C)(C)C=C3
Result: > 24 µg/mL

Q: Entry CCCc1cc(=O)oc2c(C(=O)N3CCOCC3)c(O)c3c(c12)OC(C)(C)C=C3 please
Result: > 20 µg/mL

Q: Then CCCc1cc(=O)oc2cc(N3CCN(C(=O)NC4CCCCC4)CC3)c3c(c12)OC(C)(C)C=C3 ?
Result: > 24 µg/mL

Q: CCCc1cc(=O)oc2c1c1c(c3oc([N+](=O)[O-])cc32)CCC(C)(C)O1 , same question.
Result: > 50 µg/mL

Q: Next molecule: CCCc1cc(=O)oc2cc(N(C)C)c3c(c12)OC(C)(C)C=C3
Result: > 16 µg/mL

Q: Try this molecule too: CCCc1cc(=O)oc2c3c(cc(OCCO)c12)O[C@H]([N+](=O)[O-])[C@H]3O (racemic)
Result: < 1 µg/mL

Q: Would you mind doing CCCc1cc(=O)oc2cc(C#CCO)c3c(c12)OC(C)(C)C=C3 as well?
Result: > 16 µg/mL

====

# test.name: Cytotoxicity against human HepG2 cells assessed as decrease in ATP signal after 2 days by CellTiter-Glo assay
# Format: cell-based
# test.context: read-out: LD50
Assignment: determine reported CC50 at 48 h for the given compounds.

Q: Param item = CCCc1cc(=O)oc2cc(C#CCOc3ccc(F)cc3)c3c(c12)OC(C)(C)C=C3 ; retrieve measured CC50 at 48 h.
Result: > 21 µg/mL

Q: Next: CCCc1cc(=O)oc2c3c(cc(OCCN4CCOCC4)c12)O[C@H]([N+](=O)[O-])[C@H]3C (racemic)
Result: > 21 µg/mL

Q: And the next one, CCc1c(F)c(=O)oc2c1c1c(c3oc([N+](=O)[O-])cc32)C=CC(C)(C)O1 ?
Result: > 25 µg/mL

Q: Query CCCc1cc(=O)oc2c1c(OCCN1CCOCC1)cc1oc([N+](=O)[O-])c(COC(C)=O)c12 next
Result: < 0.3 µg/mL

Q: Ok, now CCCc1cc(=O)oc2c1c(OCc1ccc(F)cc1)cc1oc([N+](=O)[O-])cc12
Result: > 100 µg/mL

Q: Same question, Cc1c(F)c(=O)oc2c1c1c(c3oc([N+](=O)[O-])cc32)CCC(C)(C)O1 this time
Result: > 50 µg/mL

Q: And CCCCCCCNC(=O)N1CCN(c2cc3oc(=O)cc(CCC)c3c3c2C=CC(C)(C)O3)CC1 ?
Result: > 25 µg/mL

Q: Param item: CCCc1cc(=O)oc2cc(C#Cc3ccc(OC)cc3)c3c(c12)OC(C)(C)C=C3
Result: > 20 µg/mL

Q: # iterate: Cc1cc(=O)oc2cc(-c3ccc([N+](=O)[O-])o3)c3c(c12)OC(C)(C)C=C3
Result: > 18 µg/mL

Q: Next entry: CCCc1cc(=O)oc2cc(N3CCN(C(=O)Nc4ccc(OC(F)(F)F)cc4)CC3)c3c(c12)OC(C)(C)C=C3
Result: > 28 µg/mL
